- ASSAYED SYSTEM: Albumin (Bos taurus) (UniProt P02769)
- Sequence (P02769 whole entry, looked up): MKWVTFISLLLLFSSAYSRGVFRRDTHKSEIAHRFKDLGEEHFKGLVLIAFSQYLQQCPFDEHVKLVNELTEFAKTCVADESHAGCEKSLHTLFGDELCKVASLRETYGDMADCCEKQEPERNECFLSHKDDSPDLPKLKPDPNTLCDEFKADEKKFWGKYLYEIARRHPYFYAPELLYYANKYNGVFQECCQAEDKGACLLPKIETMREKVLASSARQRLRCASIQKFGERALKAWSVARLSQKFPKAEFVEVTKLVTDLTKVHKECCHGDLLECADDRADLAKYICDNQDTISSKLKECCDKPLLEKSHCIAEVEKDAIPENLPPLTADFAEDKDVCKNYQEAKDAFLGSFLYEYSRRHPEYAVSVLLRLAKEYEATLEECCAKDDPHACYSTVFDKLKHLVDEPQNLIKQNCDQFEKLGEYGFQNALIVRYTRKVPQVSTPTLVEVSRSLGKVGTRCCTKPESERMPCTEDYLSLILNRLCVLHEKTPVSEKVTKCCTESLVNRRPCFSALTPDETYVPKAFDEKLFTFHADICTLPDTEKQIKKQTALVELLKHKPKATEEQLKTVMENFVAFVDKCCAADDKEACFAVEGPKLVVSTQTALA
- ASSAY INFO: bovine serum albumin binders on microarray, profiling panel, artefact control for SMM control protein annotation, biochemical, small-molecule microarray, Alexa647 label, 635/667 nm fluorescence (AID 1118);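 further: score merges 667 nm emission intensity and signal-to-noise per printed compound spot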
- CONDITION SUMMARY: BSA-A647 binding, fluorescence 635 nm, higher = more signal
Quick rule: composite z-score of at least -0.5 means Fulfilled, below that means Not fulfilled.

Take a look at these entries with their results.
COMPOUND	DISCRETE LABEL
COc1ccc([C@H]2C[C@H]3C(Br)=C[C@]2(OC)C(=O)[C@]32CO2)cc1	Fulfilled
CO[C@H]1COC(=O)[C@@H](C)NC(=O)CC=C[C@@H](C)[C@H](OC)COC(=O)CC=C[C@@H]1C	Not fulfilled
CO[C@H]1COC(=O)[C@@H](C)COC(=O)[C@H](Cc2ccccc2)NC(=O)CC=C[C@H]1C	Not fulfilled
CO[C@H]1O[C@H](CO)[C@@H](OC(=O)CCc2ccccc2)[C@@H]2OC(=O)[C@H](Cc3cccc(Br)c3)C/C=C/C[C@@H](Cc3cccc(Br)c3)C(=O)O[C@@H]12	Fulfilled
C=CC(=O)O[C@@H](Cc1ccccc1)[C@H]1C2C=CCCC=C2CN1Cc1cccc(Cl)c1 (stereo not given in full)	Fulfilled
Cc1ccccc1C(O)C1C=CC2C(=O)N(c3ccccc3)C(=O)C2N1Nc1ccc(C#N)cc1 (stereo not given)	Fulfilled
CCCC/C=C/[C@H]([C@@H](O)Cc1ccccc1)N(CC#Cc1ccccc1)Cc1ccccc1Br	Not fulfilled
COc1ccc([Si](C)(C)[C@H]2[C@H](CC(=O)N3Cc4ccccc4C[C@H]3CO)O[C@@]3(C(=O)N(Cc4cccc(N5CCOC5=O)c4)c4ccccc43)[C@@H]2C)cc1	Not fulfilled

Confirm if composite z-score reported for the compound "Cc1ccc(N2C(=O)c3ccccc3[C@](C)(C(=O)NCC(C)C)[C@@H]2c2ccc(CO)cc2)nc1" is -0.5 or above.
Not fulfilled

Entry "CCOC(=O)C1=CC[C@@H](c2ccccc2)N(S(=O)(=O)c2ccc(C)cc2)[C@H]1C" please
Fulfilled

What about "O=C(N1CCCCC1)[C@@]1(CCS(=O)(=O)c2ccccc2)N=C(c2ccc(OCCCO)cc2)O[C@H]1c1ccccc1" ?
Fulfilled

----------
- ASSAY INFO: HepG2 cell viability effects, profiling panel, calcein-AM fluorescence, 48 h, basal (AID 1164); further: test concentration not given here
- CONDITION SUMMARY: higher = more signal
TEST READOUT: z-score
Note: the reply should be a number with no unit written.

Worked set:
COMPOUND	z-score
CN(C)c1ccc(C(O)C2C=CC3C(=O)NC(=O)C3N2Nc2ccc(Cl)cc2Cl)cc1 (centres undefined)	-0.675
C=CCN(C(=O)C1N(c2ccc(CCO)cc2)C(=O)C2C(C(=O)O)C3C=CC21O3)C(C)(C)C (centres undefined)	0.134
COc1ccc(NN2C(C(O)c3cc(OC)c(OC)c(OC)c3)C=CC3C(=O)N(C4CCCCC4)C(=O)C32)cc1 (centres undefined)	1.17

For "O=C(CS)NCCCCCNC(=O)[C@H]1C[C@H]2C(=O)N[C@@H](Cc3ccccc3)C(=O)N2[C@H]1c1ccc(O)cc1" , what is its reported z-score?
-1.02

----------
- Tested on: Noggin (protein binding on small-molecule microarray)
- ASSAY INFO: Noggin binders on small-molecule microarray, primary screen, biochemical, 635/667 nm fluorescence (AID 1095);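 further: score merges 667 nm feature fluorescence with signal to noise over triplicate slides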
- CONDITION SUMMARY: 635 nm fluorescence, higher = more signal
Class boundaries, taken from values of composite z-score, are as follows: lower = under 0.4, middle = from 0.4 up to 0.9, upper = 0.9 and over

MOLECULE	ASSAYED SYSTEM	DISCRETE LABEL
O=C(NCC(O)CO)[C@]1(Cc2ccccc2)N=C(c2ccc(OCCCO)cc2)O[C@@H]1c1ccccc1 (some centres undefined)	Noggin (protein binding on small-molecule microarray)	lower
C=CCc1cccc([C@H]2N[C@H](C(=O)O)CC[C@@H]2C)c1	Noggin (protein binding on small-molecule microarray)	upper
CC(C)(C)OC(=O)CC[C@]1(C(=O)N2CCCCC2)N=C(c2ccc(OCCCO)cc2)O[C@H]1c1ccccc1	Noggin (protein binding on small-molecule microarray)	upper

Using the reported composite z-score, which band applies to "CCC(=O)[C@]12O[C@@]3([C@@H]4C(=O)OCC[C@@H]41)N(CC)C(C)=C(C(=O)OC)[C@@H](c1ccccc1)N3C2=O" ?
lower

Ok, now "O=C1C[C@@](C(=O)NC2CC2)(c2ccc([N+](=O)[O-])cc2)[C@@H](c2ccc(CO)cc2I)N1CC12CC3CC(CC(C3)C1)C2"
upper

What do you get for "CC(=O)NCCCC[C@@H]1NC(=O)[C@@H]2C[C@H](C(=O)NCCCCCNC(=O)CS)[C@H](c3ccc(O)cc3)N2C1=O" ?
upper

Another: "COC(=O)C1=C(C)N(Cc2ccccc2)c2c(C(=O)OC)c(C(=O)OC)c(C(=O)OC)c(=O)n2[C@@H]1c1ccccc1"
middle

Next molecule up: "CO[C@H]1COC(=O)[C@H](C)NC(=O)CC=C[C@@H](C)[C@H](NS(=O)(=O)c2ccc(C)cc2)COC(=O)CC=C[C@@H]1C"
middle

Similarly, CC(C)[C@H]1NC(=O)[C@@]23C(=O)N[C@@H](Cc4ccccc4)C2[C@H](C)[C@@]2(C)O[C@H]2C3/C=C/C/C=C\CNC(=O)[C@H](C)NC1=O (some centres undefined) ?
lower

Same question for "Cc1ccc(S[C@]2(C(=O)NC3CC3)CC(=O)N(Cc3cc(C(F)(F)F)cc(C(F)(F)F)c3)[C@@H]2c2ccc(CO)cc2)cc1" please.
middle

Then "CCOC(=O)C1=C[C@@H](c2ccccc2)N(S(=O)(=O)c2ccc(C)cc2)[C@H]1c1ccc(F)cc1" ?
middle

Please do the same for "CCOC(=O)C1=CC[C@@H](c2ccc(-c3ccc(OCc4ccccc4)cc3)c(OC)c2)N(S(=O)(=O)c2ccc(C)cc2)[C@H]1c1ccccc1" as well.
middle

----------
- Tested on: Plasmodium falciparum Sir2 (PF13_0152, Sir2A)
- ASSAY INFO: pfSir2 binders on small-molecule microarrays, primary screen, biochemical, small-molecule microarray, 635 nm fluorescence (AID 1098);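 further: score merges spot fluorescence intensity with its signal-to-noise ratio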
- CONDITION SUMMARY: small-molecule microarray binding, fluorescence 635 nm; higher = more signal
TEST READOUT: composite z-score
Field format: numeric only.

Illustrative cases are given below, each with its answer.
COMPOUND	NUMERIC READOUT
COCCCNC(=O)[C@@]1(Sc2ccc(C)cc2)CC(=O)N(Cc2cc(C(F)(F)F)cc(C(F)(F)F)c2)[C@@H]1c1ccc(CO)cc1I	1.84
COCCOC(=O)N1C(=O)[C@@]2(c3cc(C#CC4=CCCCC4)ccc31)[C@H](C(=O)NC[C@H](O)c1ccccc1)[C@H]1C(=O)O[C@H](c3ccccc3)[C@H](c3ccccc3)N1[C@@H]2c1ccc(OCCO)cc1	0.915
COc1ccc([Si](C)(C)[C@H]2[C@H](CCO)O[C@@]3(C(=O)N(Cc4ccccc4)c4ccc(N5C(=O)c6cccc7cccc5c67)cc43)[C@@H]2C)cc1	0.0883

Would you kindly look at the next entry?
Fill blank: measured composite z-score of the compound "CCCCCCc1nc(-c2cc(C)c(OC)c(C)c2)cc2c1[Si](C(C)C)(C(C)C)O[C@H]2c1ccccc1" is ____.
-0.717

----------
- ASSAY INFO: inhibitors of hydroxyurea-induced Chk1 phosphorylation, primary screen, imaging, HeLa, phospho-Chk1 nuclear intensity (AID 1187); further: test concentration not given here
- CONDITION SUMMARY: hydroxyurea-induced phospho-Chk1 immunofluorescence imaging, higher = more signal
TEST READOUT: z-score
No unit in the answer, only the number.

These recorded examples may help you get a feel for the data.
COMPOUND	TEST READOUT	NUMERIC READOUT
C=CCNC(=O)[C@@H]1[C@H]2C(=O)O[C@H](c3ccccc3)[C@H](c3ccccc3)N2[C@H](c2ccc(OCCO)cc2)[C@@]12C(=O)N(C(=O)OCCOC)c1ccc(C#CC3(O)CCCCCC3)cc12	z-score	0.0364
COC(=O)[C@@]1(Cc2ccccc2)[C@H]2c3cc(C(=O)N4CCCC4)n(CCN4CNCC4=O)c3C[C@H]2CN1C(=O)c1ccccc1	z-score	0.912
C[C@@H]1NC(=O)[C@H](Cc2ccccc2)NC(=O)[C@@]23C(=O)N[C@@H](Cc4ccccc4)C2[C@H](C)[C@@]2(C)O[C@H]2C3/C=C/C/C=C\CNC1=O (stereo partly specified)	z-score	0.374
NC(=O)NCC#Cc1ccc2c(c1)[C@]1(C(=O)N2)[C@H](c2ccccc2OCCO)N2[C@H](c3ccccc3)[C@H](c3ccccc3)OC(=O)[C@H]2[C@@H]1C(=O)N1CCN(c2ncccn2)CC1	z-score	1.5

I would be grateful if you could share the reported z-score for "C[N+](C)(C)CCCCNC(=O)[C@H]1C[C@H]2C(=O)NCC(=O)N2[C@H]1c1cccc(OCCO)c1" .
-0.0729

Let us now turn to O=C1C2C=CC(C(O)c3ccccc3)N(n3cnnc3)C2C(=O)N1Cc1ccccc1 (stereo unspecified)
-1.21
